All figures here come from patent US20240116985A1.

assay system: full-length beta-Catenin (Uniprot ID P35222) (Homo sapiens, UniProt P35222)
Construct: 10 nM full-length beta-Catenin (Uniprot ID P35222)
Sequence (P35222 whole entry): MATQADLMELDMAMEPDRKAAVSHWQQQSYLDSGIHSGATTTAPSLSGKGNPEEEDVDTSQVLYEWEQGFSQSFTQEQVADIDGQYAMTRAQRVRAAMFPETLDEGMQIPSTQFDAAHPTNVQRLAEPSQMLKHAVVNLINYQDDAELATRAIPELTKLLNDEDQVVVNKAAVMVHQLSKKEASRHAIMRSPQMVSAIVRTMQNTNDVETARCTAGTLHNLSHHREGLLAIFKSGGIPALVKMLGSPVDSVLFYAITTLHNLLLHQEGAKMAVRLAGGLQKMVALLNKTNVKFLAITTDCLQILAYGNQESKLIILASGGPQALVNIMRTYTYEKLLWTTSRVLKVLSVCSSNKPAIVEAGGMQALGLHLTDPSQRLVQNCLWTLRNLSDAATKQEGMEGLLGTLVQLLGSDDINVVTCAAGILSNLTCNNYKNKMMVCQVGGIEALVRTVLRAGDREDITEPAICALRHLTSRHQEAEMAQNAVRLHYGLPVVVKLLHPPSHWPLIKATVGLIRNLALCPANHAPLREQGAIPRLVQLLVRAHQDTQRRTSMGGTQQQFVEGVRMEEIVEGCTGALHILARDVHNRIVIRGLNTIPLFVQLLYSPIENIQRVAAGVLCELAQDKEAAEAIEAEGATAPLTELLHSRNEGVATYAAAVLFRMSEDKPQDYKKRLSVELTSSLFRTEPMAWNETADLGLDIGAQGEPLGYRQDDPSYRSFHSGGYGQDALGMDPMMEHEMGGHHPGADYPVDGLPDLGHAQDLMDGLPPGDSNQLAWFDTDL
method description: Fluorescence polarization IC50 (beta-catenin / 5FAM-TCF4 10-53 competition)
Assay type: binding
settings: fluorescence polarization; read-out: beta-Catenin FP IC50
endpoint: pIC50
Note on pIC50: it is the negative log10 of concentration, concentration in mol/L.

| compound | readout number |
| --- | --- |
| CC(=O)N1CCC[C@]12CC=CCCCC1(CCCC=CCCCOC(=O)N3CC[C@@](C(=O)N[C@@H](Cc4ccccc4Cl)C(=O)N[C@@H](Cc4csc5ccccc45)C(=O)N[C@@H](CCC(N)=O)C(N)=O)(C3)NC(=O)[C@H](CO)NC(=O)[C@H](Cc3ccccc3)NC(=O)[C@H](CC(C)C)NC(=O)[C@H](CC(C)C)NC(=O)[C@H](CC(=O)O)NC(=O)[C@H](CC(=O)O)NC1=O)NC(=O)[C@H](CC1CCCCC1)NC(=O)[C@H](CC(=O)O)NC2=O (stereo partly drawn) | 7.15 |

Query :: Entry CC(=O)N1CCC[C@]12CC=CCCCC1(CCCC=CCCCOC(=O)N3CC[C@@](C(=O)N[C@@H](Cc4ccsc4)C(=O)N[C@@H](Cc4csc5ccccc45)C(=O)N[C@@H](CC(C)C)C(N)=O)(C3)NC(=O)[C@H](CC(C)C)NC(=O)[C@H](Cc3ccccc3)NC(=O)[C@H](C)NC(=O)[C@H](C)NC(=O)[C@H](CN(CC(=O)O)CC(F)(F)F)NC(=O)[C@H](CC(=O)O)NC1=O)NC(=O)[C@H](CC(C)(C)C)NC(=O)[C@H](CC(=O)O)NC2=O (stereo partly drawn) [I-1748] : reported pIC50 = ?
Result :: 6.85

Query :: Again, but for CC(=O)N1CCC[C@]12CC=CCCCC1(CCCC=CCCCOC(=O)N3CC[C@@](C(=O)N[C@@H](Cc4ccsc4)C(=O)N[C@@H](Cc4csc5ccccc45)C(=O)N[C@@H](CCC(N)=O)C(N)=O)(C3)NC(=O)[C@H](CC(C)C)NC(=O)[C@H](Cc3ccccc3)NC(=O)[C@H](C)NC(=O)[C@H](C)NC(=O)[C@H](CC(=O)O)NC(=O)[C@H](CC(=O)O)NC1=O)NC(=O)[C@H](CC(C)(C)C)NC(=O)[C@H](CCC(N)=O)NC2=O (stereo partly drawn)
Result :: 6.52
